Cited source: patent US9399645B2

# Measurement Notes: Caco-2 Permeability Assay
# Type: in vitro ADME
# Measurement Conditions: human, apparent permeability A to B, compound at 10 μM, apical buffer pH 6.0, basolateral buffer pH 7.4, read-out: Papp (cm/sec, *10^−6)
hey, just use condition met if measured Papp A→B at 10 μM is less than 20 ×10⁻⁶ cm/s, otherwise condition not met

> print(dat)
                                    molecule              label
 1  CC[C@H]1C[C@@H](n2c(=O)nc(-c3cnn(C)c3)c3oc4cc(C#N)c(-c5cnn(C)c5)nc4c32)C[C@@H](C)O1  condition not met
 2  CC[C@H]1C[C@@H](n2c(=O)nc(-c3cnn(C)c3)c3oc4ccc(-c5cnn(C)c5)nc4c32)C[C@@H](C)O1  condition not met
 3  Cn1cc(-c2cc(F)c3oc4c(-c5ccc(N6CCOCC6)nc5)nc(=O)n(CCC5CCCO5)c4c3c2)cn1 (stereo not shown)      condition met
 4  CC[C@H]1C[C@@H](n2c(=O)nc(-c3cnn(C)c3)c3oc4ccc(-c5cncnc5)nc4c32)CCO1      condition met
 5  Cn1cc(-c2cnc3oc4c(-c5cnn(C)c5)nc(=O)n(CCC5CCCCO5)c4c3c2)cn1 (stereo not shown)      condition met
 6  CC[C@H]1C[C@@H](n2c(=O)nc(-c3cccnc3)c3oc4cc(C#N)c(-c5cnn(C)c5)nc4c32)CCO1  condition not met
 7  CC[C@H]1C[C@@H](n2c(=O)nc(-c3cnn(C)c3)c3oc4ccc(-c5ccn(C)n5)nc4c32)CCO1  condition not met
 8  C[C@@H]1C[C@H](n2c(=O)nc(-c3cnn(C)c3)c3oc4cc(C#N)c(-c5cnn(C)c5)nc4c32)C[C@H](C)O1      condition met
 9  CC[C@H]1C[C@@H](n2c(=O)nc(-c3cnn(C)c3)c3oc4cc(Cl)c(-c5cnn(C)c5)nc4c32)CCO1      condition met
10  CC[C@H]1C[C@@H](n2c(=O)nc(-c3cnn(CC)c3)c3oc4ncc(-c5cnn(CC)c5)cc4c32)CCO1  condition not met
